Reference for the values: ChEMBL document CHEMBL5154803

molecular target: trypsin (Homo sapiens, UniProt P07477+P07478+P35030); test: Stability of compound assessed as trypsin (unknown origin)-mediated compound degradation by measuring parent compound remaining at 150 uM measured upto 4 hrs by RP-HPLC method; format: ADME, protein assay; settings: read-out: Stability
Where a SMILES comes first, the peptide text is derived from it. The star is where a group is joined. Lauroyl = CCCCCCCCCCCC(=O)*; Decanoyl = CCCCCCCCCC(=O)*; Spermine = NCCCNCCCCNCCCN*
PROPERTY NAME: remaining at 4 h, 150 µM

COMPOUND	remaining at 4 h, 150 µM
CCCCCCCCCCCC(=O)N1CCC[C@H]1C(=O)N[C@@H](CCCNC(=N)N)C(=O)N1CCC[C@H]1C(=O)N[C@@H](CCCNC(=N)N)C(=O)N1CCC[C@H]1C(=O)N1CCC[C@H]1C(=O)N[C@@H](CCCNC(=N)N)C(=O)NCCCNCCCCNCCCN (Lauroyl-PRPRPPR-Spermine)	> 80%

Please look at the following compound next.
Lookup result for CCCCCCCCCC(=O)N1CCC[C@H]1C(=O)N[C@@H](CCCNC(=N)N)C(=O)N1CCC[C@H]1C(=O)N[C@@H](CCCNC(=N)N)C(=O)N1CCC[C@H]1C(=O)N1CCC[C@H]1C(=O)N[C@@H](CCCNC(=N)N)C(=O)NCCCNCCCCNCCCN (Decanoyl-PRPRPPR-Spermine) ; measured remaining at 4 h, 150 µM: > 80%

----------
assay: Cytotoxicity against human THP-1 cells assessed as cell viability at 100 uM by MTT assay; format: toxicity, cell-based; conditions: read-out: Activity
Where a SMILES comes first, the peptide text is derived from it. The star is where a group is joined. Lauroyl = CCCCCCCCCCCC(=O)*; Decanoyl = CCCCCCCCCC(=O)*; Spermine = NCCCNCCCCNCCCN*
PROPERTY NAME: viability at 100 µM (%)
Provide only the numeric value, understood in %.

COMPOUND	viability at 100 µM, %
CCCCCCCCCC(=O)N1CCC[C@H]1C(=O)N[C@@H](CCCNC(=N)N)C(=O)N1CCC[C@H]1C(=O)N[C@@H](CCCNC(=N)N)C(=O)N1CCC[C@H]1C(=O)N1CCC[C@H]1C(=O)N[C@@H](CCCNC(=N)N)C(=O)NCCCNCCCCNCCCN (Decanoyl-PRPRPPR-Spermine)	80

Lookup result for CCCCCCCCCCCC(=O)N1CCC[C@H]1C(=O)N[C@@H](CCCNC(=N)N)C(=O)N1CCC[C@H]1C(=O)N[C@@H](CCCNC(=N)N)C(=O)N1CCC[C@H]1C(=O)N1CCC[C@H]1C(=O)N[C@@H](CCCNC(=N)N)C(=O)NCCCNCCCCNCCCN (Lauroyl-PRPRPPR-Spermine) ; measured viability at 100 µM: 65

----------
assay: Cytotoxicity against human THP-1 cells assessed as cell viability at 50 uM by MTT assay; type: toxicity, cell-based; conditions: read-out: Activity
Where a SMILES comes first, the peptide text is derived from it. The star is where a group is joined. Myristoyl = CCCCCCCCCCCCCC(=O)*; Lauroyl = CCCCCCCCCCCC(=O)*; Decanoyl = CCCCCCCCCC(=O)*; Spermine = NCCCNCCCCNCCCN*
PROPERTY NAME: viability at 50 µM (%)
Provide only the numeric value, understood in %.

Look over these answered cases.
MOLECULE	REPORTED MEASUREMENT
CCCCCCCCCCCC(=O)N1CCC[C@H]1C(=O)N[C@@H](CCCNC(=N)N)C(=O)N1CCC[C@H]1C(=O)N[C@@H](CCCNC(=N)N)C(=O)N1CCC[C@H]1C(=O)N1CCC[C@H]1C(=O)N[C@@H](CCCNC(=N)N)C(=O)NCCCNCCCCNCCCN (Lauroyl-PRPRPPR-Spermine)	79
CCCCCCCCCCCCCC(=O)N1CCC[C@H]1C(=O)N[C@@H](CCCNC(=N)N)C(=O)N1CCC[C@H]1C(=O)N[C@@H](CCCNC(=N)N)C(=O)N1CCC[C@H]1C(=O)N1CCC[C@H]1C(=O)N[C@@H](CCCNC(=N)N)C(=O)NCCCNCCCCNCCCN (Myristoyl-PRPRPPR-Spermine)	40

Lookup result for CCCCCCCCCC(=O)N1CCC[C@H]1C(=O)N[C@@H](CCCNC(=N)N)C(=O)N1CCC[C@H]1C(=O)N[C@@H](CCCNC(=N)N)C(=O)N1CCC[C@H]1C(=O)N1CCC[C@H]1C(=O)N[C@@H](CCCNC(=N)N)C(=O)NCCCNCCCCNCCCN (Decanoyl-PRPRPPR-Spermine) ; measured viability at 50 µM: 94
